- experimentalSystem: APOL1 G1 (Homo sapiens, UniProt O14791, I384M/S342G)
- Sequence (O14791 28-398 S342G/I384M): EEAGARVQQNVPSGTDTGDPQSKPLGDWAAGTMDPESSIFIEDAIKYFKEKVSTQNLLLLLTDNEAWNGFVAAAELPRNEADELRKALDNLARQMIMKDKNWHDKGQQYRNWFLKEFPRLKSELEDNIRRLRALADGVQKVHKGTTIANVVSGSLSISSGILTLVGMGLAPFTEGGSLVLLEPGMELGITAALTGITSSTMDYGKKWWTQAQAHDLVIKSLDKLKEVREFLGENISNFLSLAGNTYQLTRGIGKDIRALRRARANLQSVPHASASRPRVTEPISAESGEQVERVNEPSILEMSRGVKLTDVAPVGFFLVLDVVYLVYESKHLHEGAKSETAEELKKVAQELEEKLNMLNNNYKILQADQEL
- assay: MultiTox-Fluor Multiplex Cytotoxicity Assay, tet-inducible APOL1 G1 T-REx-HEK293 cells
- Assay type: cell-based
- Parameters: expressed in transfected cells; host or cells: T-REx HEK293, clone G1 DC3.25 (pAAVS1-Puro-APOL1 G1)
- experimentalContext: Multi-Tox Assay; APOL1 variant not given; read-out: Multi-Tox Assay Max Activity (%)
reportedMetric: Emax (%)

1. COc1ccc(C2CC3(CC(C)N2)OCCc2cc(Cl)sc23)nn1 (mixture of isomers) ... 99.3
2. C[C@H]1C[C@@]2(C[C@@H](c3ccc(O)nc3)N1)OCCc1cc(Cl)sc12 (racemic) ... 99.7
3. CC1CC2(CC(C3CC3)N1)OCCc1cc(Cl)sc12 (mixture of isomers) ... 99.2
4. COC(=O)[C@@H]1C[C@]2(C[C@@H](C)N1)OCCc1cc(Cl)sc12 (stereo in doubt) ... 76.7
5. C[C@@H]1CC2(C[C@H](C)N1)OCCc1sc(C(F)(F)F)cc12 (single isomer, unassigned) ... 99
6. C[C@@H]1CC2(C[C@H](C)N1)OCCc1cc(CC(F)F)sc12 (single isomer, unassigned) ... 99.3
7. C[C@H]1C[C@@]2(C[C@@H](c3cn(C)nn3)N1)OC[C@@H](O)c1sc(Cl)cc12 ... 100
8. Cn1cc(C2CC3(CC(C4CCC4)N2)OCCc2cc(C(F)(F)F)sc23)nn1 (stereo not drawn) ... 99
9. CC1CC2(CC(C3CC3(F)F)N1)OCCc1cc(Cl)sc12 (single isomer, unassigned) ... 99
10. CCc1cc([C@@H]2C[C@]3(C[C@H](C)N2)OCCc2cc(Cl)sc23)on1 ... 100
11. CC1CC2(CC(CO)N1)OCCc1cc(Cl)sc12 (mixture of isomers) ... 92.2
12. C[C@H]1C[C@@]2(C[C@@H](c3ccc(C(=O)NC4CC4)cc3)N1)OCCc1cc(Cl)sc12 (racemic) ... 100
13. C[C@H]1C[C@@]2(C[C@@H](c3cn(C)nn3)N1)OC[C@@H](O)c1cc(C(F)(F)F)sc12 ... 99.8
14. COCC1CC2(CC(c3cn(C)nn3)N1)OCCc1cc(Cl)sc12 (stereo not drawn) ... 99
15. C[C@H]1C[C@@]2(C[C@@H](c3ccc(S(N)(=O)=O)cc3F)N1)OCCc1cc(Cl)sc12 (racemic) ... 99.7

Origin of measurements: patent EP4810040A2
